Molecular target: M4 muscarinic receptor (Homo sapiens, UniProt P08173)
Construct: expressed in transfected cells; host or cells: CHO cells (M4-CHO, under puromycin, zeocin and blasticidin selection)
Sequence (P08173 whole entry): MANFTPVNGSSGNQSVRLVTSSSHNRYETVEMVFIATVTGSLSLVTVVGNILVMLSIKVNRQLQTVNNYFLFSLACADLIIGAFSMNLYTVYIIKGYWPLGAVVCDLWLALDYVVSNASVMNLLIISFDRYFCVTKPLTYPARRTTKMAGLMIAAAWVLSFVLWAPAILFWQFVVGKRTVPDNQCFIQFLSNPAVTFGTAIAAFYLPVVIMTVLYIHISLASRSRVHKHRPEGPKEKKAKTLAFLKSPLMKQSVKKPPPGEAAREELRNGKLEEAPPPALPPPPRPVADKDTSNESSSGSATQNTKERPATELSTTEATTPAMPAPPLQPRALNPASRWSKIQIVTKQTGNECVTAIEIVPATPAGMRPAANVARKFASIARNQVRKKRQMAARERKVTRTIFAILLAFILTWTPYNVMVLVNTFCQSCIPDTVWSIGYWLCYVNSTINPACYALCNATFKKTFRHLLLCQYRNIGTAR
Assay: Functional mobilization of intracellular calcium (FLIPR, Fluo-3), M4-CHO cells
Format: cell-based
Settings: compound nos. 1-454; 100% efficacy is the maximum response obtained with the Carbachol control; read-out: M4 Efficacy
measured_metric: Emax

>  <compound>
CCOC(=O)N1CCC(N2CCC3(CC2)CN(C(=O)C(C)C)c2ccc(F)cc23)CC1

>  <data_value>
> 70%

$$$$
>  <compound>
CCOC(=O)N1C2CCC1CC(N1CCC3(CC1)CN(C(C)=O)c1ccccc13)C2 (centres unmarked)

>  <data_value>
< 55%

$$$$
>  <compound>
Cc1ccc2c(c1)C1(CCN(C3CC4CCC3C4)CC1)CN2C(=O)C1CC1 (centres unmarked)

>  <data_value>
55 to 70%

$$$$
>  <compound>
CCCOC(=O)N1C2CCC1CC(N1CCC3(CC1)CN(C(=O)OC1CCC1)c1ccc(F)cc13)C2 (centres unmarked)

>  <data_value>
< 55%

$$$$
>  <compound>
CCCOC(=O)N1CCC(N2CCC3(CC2)CN(C(=O)N(C)C)c2ccc(F)cc23)CC1

>  <data_value>
< 55%

$$$$
>  <compound>
CCOC(=O)N1CCC(N2CCC3(CC2)CN(C(=O)OCC(C)(C)C)c2ccc(F)cc23)CC1

>  <data_value>
< 55%

$$$$
>  <compound>
CCOC(=O)N1C2CCC1CC(N1CCC3(CC1)CN(C(=O)c1snnc1C)c1ccc(F)cc13)C2 (centres unmarked)

>  <data_value>
55 to 70%

$$$$
>  <compound>
CCOC(=O)N1C2CCC1CC(N1CCC3(CC1)CN(C(=O)O[C@@H]1CCOC1)c1ccc(F)cc13)C2 (some centres unmarked)

>  <data_value>
55 to 70%

$$$$
